# target-system: KRas WT (Homo sapiens)
# Construct: Biotinylated KRas WT(1-169); biotin (biotinylated)
# Sequence (P01116 1-169): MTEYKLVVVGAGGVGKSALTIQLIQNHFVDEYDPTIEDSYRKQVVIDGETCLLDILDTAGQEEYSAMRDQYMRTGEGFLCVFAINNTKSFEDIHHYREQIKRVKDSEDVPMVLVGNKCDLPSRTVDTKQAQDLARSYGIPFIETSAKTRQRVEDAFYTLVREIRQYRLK
# protocol-description: SOS1-Catalyzed Nucleotide Exchange Assay, KRas WT
# Type: biochemical
# assay-conditions: 20 nM KRas WT (1-169, GDP-loaded), 10 nM SOS1
pIC50: −log10 of the molar value.
value-type: pIC50

Examples with their reported pIC50 follow.
O=C1CCc2c(Cl)cc(O)cc2-c2ncc3c(nc(OC[C@@]45CCCN4C[C@H](F)C5)nc3c2F)N2CCCC(CCN1)C2 (some centres unmarked) [Compound 113a]; 5.00 to 6.00
Oc1ccc2c(c1)-c1ncc3c(nc(OC[C@@]45CCCN4C[C@H](F)C5)nc3c1F)N1CCCC(CCCCCCC2)C1 (some centres unmarked) [Compound 143a]; ≥ 7.00

stdin: Given Oc1cc(Cl)c2c(c1)-c1ncc3c(nc(OC[C@@]45CCCN4C[C@H](F)C5)nc3c1F)N1CCCC(O)(CCCCCCC2)C1 (some centres unmarked) [Compound 152a] , respond with its pIC50.
stdout: ≥ 7.00

stdin: Using known records, supply pIC50 for Oc1cc(Cl)c2c(c1)-c1ncc3c(nc(OC[C@@]45CCCN4C[C@H](F)C5)nc3c1F)N1CCCC(Cc3noc(n3)CCCCCC2)C1 (some centres unmarked) [Compound 153a]
stdout: 6.00 to 7.00

stdin: Could you please provide reported pIC50 for O=C1CCCCc2c(Cl)cc(O)cc2-c2ncc3c(nc(OC[C@@]45CCCN4C[C@H](F)C5)nc3c2F)N2CCC[C@@H](CCN1)C2 (single isomer, unassigned) [Compound 115c] ? Thanks!
stdout: ≥ 7.00

stdin: Report pIC50, nothing else, for this compound: O=C1CCCCc2c(Cl)cc(O)cc2-c2ncc3c(nc(OC[C@@]45CCCN4C[C@H](F)C5)nc3c2F)N2CCCC(CCN1)C2 (some centres unmarked) [Compound 115a]
stdout: ≥ 7.00

stdin: Fill in reported pIC50 for this entry: Oc1cc2c3c(c(F)ccc3c1)-c1cn(nn1)CCCCC1CCCN(C1)c1nc(OC[C@@]34CCCN3C[C@H](F)C4)nc3c(F)c-2ncc13 (some centres unmarked) [Compound 125a]
stdout: 5.00 to 6.00

stdin: Entry Oc1cc(Cl)c2c(c1)-c1ncc3c(nc(OC[C@@]45CCCN4C[C@H](F)C5)nc3c1F)N1CCCC(O)(CCCCCC2)C1 (some centres unmarked) [Compound 151a] needs its pIC50 filled in; supply it.
stdout: ≥ 7.00

====

Listed compounds paired with reported IC50
# target-system: KRas G12V (Homo sapiens, UniProt P01116, G12V)
# Construct: Biotinylated KRas G12V (aa 1-169) loaded with GDP nucleotide; biotin (biotinylated)
# Sequence (P01116 1-169 G12V): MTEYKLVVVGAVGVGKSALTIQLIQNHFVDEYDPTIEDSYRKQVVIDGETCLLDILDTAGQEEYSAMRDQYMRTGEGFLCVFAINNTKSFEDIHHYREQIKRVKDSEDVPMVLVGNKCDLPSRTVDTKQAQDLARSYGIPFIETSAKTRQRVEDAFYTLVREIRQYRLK
# protocol-description: SOS1-Catalyzed Nucleotide Exchange Assay, KRas G12V (Method 2)
# Type: biochemical
# assay-conditions: Method 2, A; 5 nM KRas G12V (aa 1-169, GDP-loaded), 50 nM SOS1; read-out: KRas G12V IC50 (nM) (Method 2, A)

Use these answered entries as a reference point.
O=C1CCCc2c(F)ccc3cc(O)cc(c23)-c2ncc3c(nc(OC[C@@]45CCCN4C[C@H](F)C5)nc3c2F)N2CCOCC(CCN1)C2 (some centres unmarked) [Compound 194a]; ≤ 100 nM
Nc1cc2c3c(c(F)ccc3c1)CCCC(=O)NCCC1CCCN(C1)c1nc(OC[C@@]34CCCN3C[C@H](F)C4)nc3c(F)c-2ccc13 (some centres unmarked) [Compound 190a]; 100 to 1000 nM
Nc1cc2c3c(c(F)ccc3c1)CCCC(=O)NCC1COCCN(C1)c1nc(OC[C@@]34CCCN3C[C@H](F)C4)nc3c(F)c-2ncc13 (some centres unmarked) [Compound 192a]; 100 to 1000 nM
Nc1ccc2c(c1F)-c1ncc3c(nc(OC[C@@]45CCCN4C[C@H](F)C5)nc3c1F)N1CCCC(CCNC(=O)CCCC2)C1 (some centres unmarked) [Compound 160a]; 10000 to 30000 nM

Next:
stdin: State, in one line, measured IC50 of O=C1CCCCc2c(Cl)cc(O)cc2-c2ncc3c(nc(OC[C@@]45CCCN4C[C@H](F)C5)nc3c2F)N2CCCC(O)(CCN1)C2 (single isomer, unassigned) [Compound 140b]
stdout: ≤ 100 nM
